The origin of these recorded values is patent US12195427B2.

# System: MASP-2 CCP2-SP (Homo sapiens (Human))
# Sequence (O00187 445-686): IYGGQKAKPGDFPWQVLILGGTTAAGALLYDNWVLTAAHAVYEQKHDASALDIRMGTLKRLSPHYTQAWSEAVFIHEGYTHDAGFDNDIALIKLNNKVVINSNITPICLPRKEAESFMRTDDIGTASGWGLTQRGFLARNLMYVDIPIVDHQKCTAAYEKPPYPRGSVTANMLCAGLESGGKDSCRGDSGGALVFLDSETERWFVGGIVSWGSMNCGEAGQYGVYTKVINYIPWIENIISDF
# Sequence (O00187 364-432 partner): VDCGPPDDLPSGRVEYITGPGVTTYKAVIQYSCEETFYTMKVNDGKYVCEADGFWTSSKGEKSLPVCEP
# Method description: MASP-2 co-crystallization, X-ray crystallography and structure analysis (H-bonds, van der Waals contacts)
# Particulars: Table A8-6; nearest protein atom in cell to the left
Recorded metric: Pharmacophore protein distance to GLY_528

Compound: N=C(N)c1ccc(CNC(=O)[C@@H]2CCN2C(=O)[C@H](NCC(=O)O)C2Cc3ccccc3C2)cc1
Recorded result: 3.51
//
Compound: O=c1oc(-c2ccccc2[N+](=O)[O-])nc2ccccc12
Recorded result: 3.51
//
Compound: C[C@H](NC(=O)[C@H](N)CCc1cc(Cl)cc(Cl)c1)C(=O)NCc1ccc(C(=N)N)cc1
Recorded result: 3.82
//
Compound: C[C@H](NC(=O)C1C[C@@H](c2ccccc2)CCN1)C(=O)NCc1ccc(C(=N)N)cc1 (stereo in doubt)
Recorded result: 3.37
//
Compound: C[C@H](NC(=O)[C@H]1Cc2c([nH]c3ccccc23)CN1)C(=O)NCc1ccc(C(=N)N)cc1.Cl.Cl [1097_1]
Recorded result: 3.46
//
Compound: C[C@H](NC(=O)[C@H](N)C1Cc2ccccc2C1)C(=O)NCc1ccc2nc(N)[nH]c2c1
Recorded result: 3.81
//
Compound: C[C@H](NC(=O)[C@@H](CCc1ccccc1)NCc1ccc(C(=O)N2CCOCC2)cc1)C(=O)NCc1ccc(C(=N)N)cc1.Cl.Cl
Recorded result: 3.41
//
Compound: C[C@H](NC(=O)[C@@H](CCc1ccccc1)NCc1ccc(N2CCOCC2)cc1)C(=O)NCc1ccc(C(=N)N)cc1
Recorded result: 3.92
//
Compound: C[C@H](NC(=O)[C@H](N)CCCc1ccccc1)C(=O)NCc1ccc(C(=N)N)cc1.Cl.Cl [1042_3]
Recorded result: 2.99
//
Compound: CNC(=O)c1ccc2c(=O)n(Cc3ccccc3)c(=O)n(CC(=O)NCc3ccc(C(=N)N)cc3)c2c1
Recorded result: 3.65
//
Compound: C[C@H](NC(=O)[C@H]1C[C@@H](c2ccccc2)CCN1)C(=O)NCc1cc(Cl)ccc1O.Cl [1078_1]
Recorded result: 3.66
//
Compound: C[C@H](NC(=O)[C@H](N)CCCc1ccccc1)C(=O)NCc1ccc(C(=N)N)cc1.Cl.Cl [1042_1]
Recorded result: 4.67
//
Compound: C[C@H](NC(=O)[C@H]1C[C@@H](c2ccccc2)CN1)C(=O)NCc1ccc2c(N)nccc2c1.Cl.Cl [1089_A]
Recorded result: 3.59
//
Compound: N=C(N)c1ccc(CNC(=O)[C@@H]2CCN2C(=O)[C@H]2Cc3ccccc3CN2)cc1
Recorded result: 3.79
//
Compound: C[C@H](NC(=O)[C@H](N)CCc1cccc(Cl)c1)C(=O)NCc1ccc(C(=N)N)cc1
Recorded result: 3.22
